# Lookup of reported EC50 keyed by entry
# Tested on: Trypanosoma brucei brucei
# procedure-text: Antiprotozoal activity against Trypanosoma brucei brucei TC211 assessed as luminescence incubated for 24 to 48 hrs by ATPlite assay
# Assay type: functional, organism-based
# number only, unit µM dropped from output

Here are 3 molecules together with their reported answers.
• Cc1ccc(C[C@H](NC(=O)c2ccncc2)C(=O)N[C@H](/C=C(\F)S(=O)(=O)Cc2ccccc2)CCc2ccccc2)cc1 = 1.4
• Cc1ccc(C[C@H](NC(=O)c2ccncc2)C(=O)N[C@H](/C=C(\F)S(=O)(=O)c2ccccc2)CCc2ccccc2)cc1 = 1.9
• Cc1ccc(C[C@H](NC(=O)c2ccc3c(c2)OCCO3)C(=O)N[C@H](/C=C(\F)S(=O)(=O)c2ccccc2)CCc2ccccc2)cc1 = 0.8

Fill blank: measured EC50 of the molecule Cc1ccc(C[C@H](NC(=O)c2ccncc2)C(=O)N[C@H](/C=C(\F)S(=O)(=O)Oc2ccccc2)CCc2ccccc2)cc1 is ____.
1.9

====

# Species on record: Homo sapiens
# procedure-text: Inhibition of caspase-like activity of human 20S proteasome at 11 uM using Cbz-Leu-Leu-Glu-AMC as fluorogenic substrate by microplate reader relative to control
observation-type: inhibition

* O=C(N[C@@H](Cc1ccccc1)C(=O)N[C@H](/C=C(\F)S(=O)(=O)c1ccccc1)CCc1ccccc1)c1ccncc1 | 41%

Read the next record carefully.
Item CSCC[C@@H](/C=C(\F)S(=O)(=O)c1ccccc1)NC(=O)[C@H](Cc1ccccc1)NC(=O)N1CCN(C)CC1 has what recorded inhibition?
18%

====

# system-tested: Rhodesain (Trypanosoma brucei rhodesiense)
# procedure-text: Inhibition of Trypanosoma brucei rhodesain assessed as rate constant of dissociation of the final complex using Cbz-Phe-Arg-AMC as substrate by fluorometric enzyme assays
observation-type: K (s⁻¹)
// return numeric value only (unit: s⁻¹, not printed)

Example entries begin here.
- Cc1ccc(C[C@H](NC(=O)c2cc(F)cc(F)c2)C(=O)N[C@H](/C=C(\F)S(=O)(=O)Oc2ccccc2)CCc2ccccc2)cc1: 0.009
- Cc1cccc(C[C@H](NC(=O)c2ccc3c(c2)OCCO3)C(=O)N[C@H](/C=C(\F)S(=O)(=O)Oc2ccccc2)CCc2ccccc2)c1: 0.015
- O=C(N[C@@H](Cc1ccccc1)C(=O)N[C@H](/C=C(\F)S(=O)(=O)Oc1ccccc1)CCc1ccccc1)c1ccc2c(c1)OCCO2: 0.011
- Cc1cccc(C[C@H](NC(=O)c2cc(F)cc(F)c2)C(=O)N[C@H](/C=C(\F)S(=O)(=O)Oc2ccccc2)CCc2ccccc2)c1: 0.01
- Cc1ccc(C[C@H](NC(=O)c2ccc3c(c2)OCCO3)C(=O)N[C@H](/C=C(\F)S(=O)(=O)Oc2ccccc2)CCc2ccccc2)cc1: 0.005

Could you share which K value was measured for Cc1cccc(C[C@H](NC(=O)c2ccncc2)C(=O)N[C@H](/C=C(\F)S(=O)(=O)Oc2ccccc2)CCc2ccccc2)c1 ?
0.005

Moving on to Cc1ccc(C[C@H](NC(=O)c2ccncc2)C(=O)N[C@H](/C=C(\F)S(=O)(=O)Oc2ccccc2)CCc2ccccc2)cc1
0.01

Same for O=C(N[C@@H](Cc1ccccc1)C(=O)N[C@H](/C=C(\F)S(=O)(=O)Oc1ccccc1)CCc1ccccc1)c1ccncc1
0.01

====

Quick reference: pKi of the listed items.
# system-tested: Cathepsin B (Homo sapiens, UniProt P07858)
Field pKi (float): negative decimal logarithm of the concentration in molar.

• CSCC[C@@H](/C=C(\F)S(=O)(=O)c1ccccc1)NC(=O)[C@H](Cc1ccccc1)NC(=O)c1ccncc1 = 6.00

With those in mind, consider the next compound.
Could you tell me which pKi is on file for O=C(N[C@@H](Cc1ccccc1)C(=O)N[C@H](/C=C(\F)S(=O)(=O)Oc1ccccc1)CCc1ccccc1)c1ccncc1 ?
5.77

====

# Test system: Trypanosoma brucei brucei
# procedure-text: Antiprotozoal activity against Trypanosoma brucei brucei BS449 assessed as luminescence incubated for 24 to 48 hrs by ATPlite assay
# Type: functional, organism-based
Let's look at some molecules and their measured EC50.
Just so you know, I need the unit written after the number.

Some molecules with recorded EC50:
- CN1CCN(C(=O)N[C@@H](Cc2ccccc2)C(=O)N[C@H](/C=C(\F)S(=O)(=O)c2ccccc2)CCc2ccccc2)CC1: 12500 nM
- O=C(N[C@@H](Cc1ccccc1)C(=O)N[C@H](/C=C(\F)S(=O)(=O)Oc1ccccc1)CCc1ccccc1)c1ccncc1: 4800 nM
- CSCC[C@@H](/C=C(\F)S(=O)(=O)c1ccccc1)NC(=O)[C@H](Cc1ccccc1)NC(=O)N1CCN(C)CC1: 14100 nM

Param readout= EC50; system= Trypanosoma brucei brucei; entry= CN1CCN(C(=O)N[C@@H](Cc2ccccc2)C(=O)N[C@H](/C=C(\F)S(=O)(=O)c2ccccc2)CSCc2ccccc2)CC1 ; returns value.
3000 nM

Please do the same for O=C(N[C@@H](Cc1ccccc1)C(=O)N[C@H](/C=C(\F)S(=O)(=O)c1ccccc1)CCc1ccccc1)c1ccncc1 as well.
3000 nM

What about this molecule? CN1CCN(C(=O)N[C@@H](Cc2ccccc2)C(=O)N[C@H](/C=C/S(=O)(=O)c2ccccc2)CCc2ccccc2)CC1
180 nM

Entry Cc1ccc(C[C@H](NC(=O)c2ccc3c(c2)OCCO3)C(=O)N[C@H](/C=C(\F)S(=O)(=O)Oc2ccccc2)CCc2ccccc2)cc1 please
140 nM

====

# system-tested: Rhodesain (Trypanosoma brucei rhodesiense, UniProt Q95PM0)
# Sequence (Q95PM0 whole entry): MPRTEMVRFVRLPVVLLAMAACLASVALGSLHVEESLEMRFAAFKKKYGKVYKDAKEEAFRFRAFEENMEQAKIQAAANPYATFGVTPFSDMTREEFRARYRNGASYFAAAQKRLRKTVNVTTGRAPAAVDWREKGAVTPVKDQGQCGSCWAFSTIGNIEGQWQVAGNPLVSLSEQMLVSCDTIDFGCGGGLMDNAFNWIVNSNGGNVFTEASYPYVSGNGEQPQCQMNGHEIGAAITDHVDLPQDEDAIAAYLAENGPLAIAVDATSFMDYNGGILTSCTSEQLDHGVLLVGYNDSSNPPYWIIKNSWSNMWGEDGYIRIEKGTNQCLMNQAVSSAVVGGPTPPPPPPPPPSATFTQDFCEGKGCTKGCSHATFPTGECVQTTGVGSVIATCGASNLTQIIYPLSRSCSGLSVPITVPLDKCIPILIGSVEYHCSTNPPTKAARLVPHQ
# procedure-text: Competitive inhibition of Trypanosoma brucei rhodesain assessed as fluorescence using Cbz-Phe-Arg-AMC as substrate by fluorometric enzyme assays
Here the recorded pKi is given for each entry.
pKi here: minus log base 10 of the concentration, concentration in moles per litre.

- Cc1ccc(C[C@H](NC(=O)c2ccncc2)C(=O)N[C@H](/C=C(\F)S(=O)(=O)Cc2ccccc2)CCc2ccccc2)cc1: 7.60

Recorded pKi of O=C(N[C@@H](Cc1ccccc1)C(=O)N[C@H](/C=C(\F)S(=O)(=O)c1ccccc1)CCc1ccccc1)c1ccncc1 , please.
7.33

====

# Tested on: cathepsin L (CatL) versus rhodesain
# procedure-text: Selectivity index, ratio of Ki for human liver CatL to Trypanosoma brucei rhodesain
# measurement-parameters: read-out: Selectivity Index
Collected selectivity ratio values appear next to each entry.

These solved cases illustrate the format of a correct answer.
* Cc1ccc(C[C@H](NC(=O)c2ccc3c(c2)OCCO3)C(=O)N[C@H](/C=C(\F)S(=O)(=O)Oc2ccccc2)CCc2ccccc2)cc1 | 6
* Cc1ccc(C[C@H](NC(=O)c2ccc3c(c2)OCCO3)C(=O)N[C@H](/C=C(\F)S(=O)(=O)Cc2ccccc2)CCc2ccccc2)cc1 | 6
* Cc1cccc(C[C@H](NC(=O)c2ccncc2)C(=O)N[C@H](/C=C(\F)S(=O)(=O)Cc2ccccc2)CCc2ccccc2)c1 | 2

Okay, now this compound:
Enter reported selectivity ratio observed with cathepsin L (CatL) versus rhodesain for Cc1ccc(C[C@H](NC(=O)c2ccncc2)C(=O)N[C@H](/C=C(\F)S(=O)(=O)Oc2ccccc2)CCc2ccccc2)cc1
26

====

# system-tested: UniProtKB P07711
# Sequence (P07711 whole entry): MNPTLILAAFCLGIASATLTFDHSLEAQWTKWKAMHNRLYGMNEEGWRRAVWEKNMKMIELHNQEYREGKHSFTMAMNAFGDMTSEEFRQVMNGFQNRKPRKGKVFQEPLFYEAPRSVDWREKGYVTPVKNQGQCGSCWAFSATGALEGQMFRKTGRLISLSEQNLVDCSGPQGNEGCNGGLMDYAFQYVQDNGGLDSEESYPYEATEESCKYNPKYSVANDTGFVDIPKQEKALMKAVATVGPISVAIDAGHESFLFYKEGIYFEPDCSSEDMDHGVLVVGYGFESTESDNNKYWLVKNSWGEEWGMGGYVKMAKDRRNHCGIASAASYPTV
# procedure-text: Inhibition of human CatL assessed as fluorescence using Cbz-Phe-Arg-AMC as substrate measured using Dixon equation by fluorometric enzyme assays
# Design: species or system Liver
observation-type: Ki (nM)
Kindly answer with a numeric value in nM, unit omitted.

Here's what some known entries look like.
* O=C(N[C@@H](Cc1ccccc1)C(=O)N[C@H](/C=C(\F)S(=O)(=O)Oc1ccccc1)CCc1ccccc1)c1ccncc1 | 60
* Cc1ccc(C[C@H](NC(=O)c2ccncc2)C(=O)N[C@H](/C=C(\F)S(=O)(=O)Oc2ccccc2)CCc2ccccc2)cc1 | 78
* Cc1ccc(C[C@H](NC(=O)c2ccc3c(c2)OCCO3)C(=O)N[C@H](/C=C(\F)S(=O)(=O)Oc2ccccc2)CCc2ccccc2)cc1 | 39

Turning now to a further compound:
Ki lookup needed for Cc1cccc(C[C@H](NC(=O)c2ccncc2)C(=O)N[C@H](/C=C(\F)S(=O)(=O)Oc2ccccc2)CCc2ccccc2)c1 , thanks.
30

====

# Test system: Dengue virus
# procedure-text: Inhibition of Dengue virus NS2B-NS3 protease assessed as fluorescent emission using boc-Gly-Arg-Arg-AMC at 11 uM by microplate reader relative to control
Active and inactive are the calls of the source. The rule behind the calls is not given here.
observation-type: inhibition

• CN1CCN(C(=O)N[C@@H](Cc2ccccc2)C(=O)N[C@H](/C=C(\F)S(=O)(=O)c2ccccc2)CCc2ccccc2)CC1 = inactive
• Cc1ccc(C[C@H](NC(=O)c2ccc3c(c2)OCCO3)C(=O)N[C@H](/C=C(\F)S(=O)(=O)Oc2ccccc2)CCc2ccccc2)cc1 = 11%
• O=C(N[C@@H](Cc1ccccc1)C(=O)N[C@H](/C=C(\F)S(=O)(=O)c1ccccc1)CCc1ccccc1)c1ccncc1 = inactive
• CN1CCN(C(=O)N[C@@H](Cc2ccccc2)C(=O)N[C@H](/C=C(\F)S(=O)(=O)c2ccccc2)CSCc2ccccc2)CC1 = 13%
• O=C(N[C@@H](Cc1ccccc1)C(=O)N[C@H](/C=C(\F)S(=O)(=O)Oc1ccccc1)CCc1ccccc1)c1ccncc1 = inactive

Looking for the measured inhibition of Cc1ccc(C[C@H](NC(=O)c2ccncc2)C(=O)N[C@H](/C=C(\F)S(=O)(=O)Oc2ccccc2)CCc2ccccc2)cc1 , can you help?
inactive

Also Cc1ccc(C[C@H](NC(=O)c2ccncc2)C(=O)N[C@H](/C=C(\F)S(=O)(=O)Cc2ccccc2)CCc2ccccc2)cc1 , if possible.
inactive
